# Tested on: MCF7
# EXPERIMENT: Cell cycle arrest in human MCF7 cells assessed as accumulation at G0/G1 phase at 4 uM after 24 hrs using propidium iodide staining based flow cytometric analysis
# Type: functional
OBSERVABLE: Activity

{"SMILES TEXT": "COc1cc(/C=C/C(=O)c2ccc(O)cc2)ccc1OCCCn1cc(COc2cc3c(cc2OC)C(=O)N2CCC[C@H]2C=N3)nn1", "OBSERVABLE": "Activity", "TEST VALUE": "87.7%"}
{"SMILES TEXT": "COc1cc(/C=C/C(=O)c2cc(Cl)ccc2O)ccc1OCCCCCn1cc(COc2cc3c(cc2OC)C(=O)N2CCC[C@H]2C=N3)nn1", "OBSERVABLE": "Activity", "TEST VALUE": "60.18%"}
{"SMILES TEXT": "COc1cc2c(cc1OCc1ccccc1)N=C[C@@H]1C[C@H](n3cc(COc4ccc(/C=C/C(=O)c5ccccc5O)cc4OC)nn3)CN1C2=O", "OBSERVABLE": "Activity", "TEST VALUE": "59.79%"}
{"SMILES TEXT": "COc1cc(/C=C/C(=O)c2ccccc2O)ccc1OCCCn1cc(COc2cc3c(cc2OC)C(=O)N2CCC[C@H]2C=N3)nn1", "OBSERVABLE": "Activity", "TEST VALUE": "76.87%"}
{"SMILES TEXT": "COc1cc(/C=C/C(=O)c2ccccc2O)ccc1OCCCCn1cc(COc2cc3c(cc2OC)C(=O)N2CCC[C@H]2C=N3)nn1", "OBSERVABLE": "Activity", "TEST VALUE": "89.1%"}
